As a worked illustration, we turn to log10 IC50 data collected for C-X-C chemokine receptor type 3 (Homo sapiens, UniProt P49682).
Quick note: numbers are log10 of IC50, with nM as the unit.

1. Cc1nc(C)n(CC(=O)N2CCN(c3sc(C(F)(F)F)nc3-c3cnc(OC(C)C)nc3)C[C@H]2C)n1	0.53

Hi! Can you tell me log10 IC50 for each of these molecules?
1. Cc1nc(-c2nc3ccccc3[nH]2)c(N2CCN(C(=O)Cn3cnc4cccnc43)[C@H](C)C2)s1
2. CCOc1ccc(-c2nc(C(F)(F)F)sc2N2CCN(C(=O)Cn3nc(C)nc3C)[C@H](C)C2)cn1
3. O=C(Cn1cnc2cccnc21)N1CCN(c2scnc2-c2nc3ccccc3[nH]2)CC1
4. Cc1nc(C)n(CC(=O)N2CCN(c3sc(C(F)(F)F)nc3-c3cnc(C4CC4)nc3)C[C@H]2C)n1

Found:
[0.95, 0.94, 1.48, 0.54]

For every record below, what is its log10 IC50?
1. Cc1nc(C)n(CC(=O)N2CCN(c3sc(C(F)(F)F)nc3-c3ccc(C(F)(F)F)nc3)C[C@H]2C)n1
2. CCOc1ncc(-c2nc(C(F)(F)F)sc2N2CCN(C(=O)Cn3cnc4cccnc43)[C@H](C)C2)cn1
3. COc1ncc(-c2nc(C(F)(F)F)sc2N2CCN(C(=O)Cn3cnc4cccnc43)[C@H](C)C2)cn1
4. C[C@@H]1CN(c2sc(CO)nc2-c2nc3ccccc3[nH]2)CCN1C(=O)Cn1cnc2cccnc21
5. C[C@@H]1CN(c2sc(C3CC3)nc2-c2nc3ccccc3[nH]2)CCN1C(=O)Cn1cnc2cccnc21

Found:
1. 0.62
2. 0.30
3. 0.58
4. 2.23
5. 0.99

----------
Consider compounds characterized by their pIC50 with C-X-C chemokine receptor type 3 (Homo sapiens, UniProt P49682).
Sequence (P49682 whole entry): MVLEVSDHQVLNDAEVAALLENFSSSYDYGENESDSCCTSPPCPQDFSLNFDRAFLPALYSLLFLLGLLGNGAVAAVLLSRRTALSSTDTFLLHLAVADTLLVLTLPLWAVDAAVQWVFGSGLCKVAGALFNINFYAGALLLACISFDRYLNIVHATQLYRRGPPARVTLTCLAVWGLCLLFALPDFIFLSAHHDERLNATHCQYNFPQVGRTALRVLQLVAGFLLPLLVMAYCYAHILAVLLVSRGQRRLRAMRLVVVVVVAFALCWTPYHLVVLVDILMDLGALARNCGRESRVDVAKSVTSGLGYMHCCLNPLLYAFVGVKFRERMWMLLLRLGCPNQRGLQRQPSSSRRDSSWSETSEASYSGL
Numbers only, as −log10 of the molar value.

Some compounds with recorded pIC50:
1) CCOc1ncc(-c2nc(C(F)(F)F)sc2N2CCN(C(=O)Cn3nc(C)cc3C)[C@H](C)C2)cn1	8.64
2) O=C(Nc1cccnc1N1CCN(C(=O)Cn2cnc3cccnc32)CC1)c1cccc(Cl)c1	8.38
3) C[C@@H]1CN(c2sc(C3COC3)nc2-c2nc3ccccc3[nH]2)CCN1C(=O)Cn1cnc2cccnc21	7.28
4) CCOc1ncc(-c2nc(C(F)(F)F)sc2N2CCN(C(=O)Cn3c(=O)oc4ccccc43)[C@H](C)C2)cn1	8.48
5) C[C@@H]1CN(c2scnc2-c2nc3ccccc3[nH]2)CCN1C(=O)Cn1cnc2cccnc21	8.23
6) CC[C@@H]1CN(c2scnc2-c2nc3ccccc3[nH]2)CCN1C(=O)Cn1cnc2cccnc21	8.41
7) C[C@@H]1CN(c2sc(CN(C)C)nc2-c2nc3ccccc3[nH]2)CCN1C(=O)Cn1cnc2cccnc21	7.30
8) O=C(Nc1ccccc1N1CCN(C(=O)Cn2cnc3cccnc32)CC1)c1cccc(Cl)c1	8.80

Give measured pIC50 for every item shown.
1. CCCc1ncc(-c2nc(C(F)(F)F)sc2N2CCN(C(=O)Cn3nc(C)nc3C)[C@H](C)C2)cn1
2. CCOc1ncc(-c2nc(C(F)(F)F)sc2N2CCN(C(=O)Cn3nc(C)nc3C)[C@H](C)C2)cn1
3. C[C@@H]1CN(c2sc(C(F)(F)F)nc2-c2nc3ccccc3[nH]2)CCN1C(=O)Cn1cnc2cccnc21

Found:
1. 8.36
2. 8.15
3. 8.80

List pIC50 for every entry below, keeping the order given.
1. C[C@@H]1CN(c2sc(Br)nc2-c2nc3ccccc3[nH]2)CCN1C(=O)Cn1cnc2cccnc21
2. O=C(Cn1cnc2cccnc21)N1CCN(c2ccccc2-c2nc3ccccc3[nH]2)CC1

Found:
1. 8.55
2. 8.37
